Parameter IC50: see the listing below.
Target: human Arginine Vasopressin Receptor 1a (AVPR1a) (Homo sapiens, UniProt P37288)
Sequence (P37288 whole entry): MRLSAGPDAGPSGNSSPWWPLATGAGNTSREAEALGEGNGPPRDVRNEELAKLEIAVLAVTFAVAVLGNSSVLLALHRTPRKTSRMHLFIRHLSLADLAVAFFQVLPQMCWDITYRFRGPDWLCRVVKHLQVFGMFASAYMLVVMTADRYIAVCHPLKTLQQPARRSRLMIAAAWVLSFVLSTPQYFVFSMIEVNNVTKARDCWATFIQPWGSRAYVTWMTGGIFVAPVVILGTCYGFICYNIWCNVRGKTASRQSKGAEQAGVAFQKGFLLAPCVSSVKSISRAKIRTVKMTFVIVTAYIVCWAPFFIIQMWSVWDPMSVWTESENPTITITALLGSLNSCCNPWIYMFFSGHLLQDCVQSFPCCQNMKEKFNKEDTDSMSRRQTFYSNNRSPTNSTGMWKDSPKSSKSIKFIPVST
Test: cell-based
Details: read-out: V1a-R IC50

{"columns": ["compound", "IC50 (nM)"],
 "data": [
  ["Cc1cnc(N2CCC(C(=O)N(CC3CC3)c3ccc(Cl)cc3)CC2)nc1 [Compound 166]", 38],
  ["O=C(C1CCN(c2nc3ccccc3o2)CC1)N1CCCCc2cc(Cl)ccc21 [Compound 213]", 24],
  ["O=C(C1CCN(c2nc3ccc(Cl)cc3o2)CC1)N(CC1CC1)c1ccc(Cl)cc1 [Compound 207]", 350],
  ["O=C(C1CCN(c2nccc(C(F)(F)F)n2)CC1)N1CCCCc2cc(Cl)ccc21 [Compound 174]", 82]
]}
